- Tested on: Rhizoctonia solani
- experimental_protocol: Example F rice sheath blight
- Type: in vivo
- condition: Rhizoctonia solani, 144 h, 100 PPM; read-out: disease control rating, Ex. F
measurement_kind: pest or weed control at 100 ppm (%)

| compound | measurement_kind | value_reported |
| --- | --- | --- |
| C=C(c1ccc(OC)cc1)C(O)(Cn1cncn1)c1ccc(F)cc1 (stereo not drawn) | pest or weed control at 100 ppm | 0 |
| C=C(CO)C(O)(Cn1cncn1)c1ccc(Cl)cc1 (stereo not drawn) | pest or weed control at 100 ppm | 0 |
| C=C(c1ccc(SC)cc1)C(O)(Cn1cncn1)c1ccc(F)cc1F (stereo not drawn) | pest or weed control at 100 ppm | 0 |
| C=C(c1ccccc1)[C@](O)(Cn1cncn1)c1ccc(F)cc1 | pest or weed control at 100 ppm | 97 |
| C=C(c1cccc(F)c1)C(O)(Cn1cncn1)c1ccc(Cl)cc1Cl (stereo not drawn) | pest or weed control at 100 ppm | 0 |
| C=C(c1ccccc1)C(O)(Cn1cncn1)c1ccc(Cl)cc1Cl (stereo not drawn) | pest or weed control at 100 ppm | 93 |
| C=C(c1ccc(Cl)cc1)C(O)(Cn1cncn1)c1ccccc1Cl (stereo not drawn) | pest or weed control at 100 ppm | 100 |
| OC(Cn1cncn1)(C(=Cc1ccccc1)c1ccccc1)c1ccc(F)cc1 (stereo not drawn) | pest or weed control at 100 ppm | 0 |
| C=C(c1ccc(Cl)cc1Cl)C(O)(Cn1cncn1)c1ccc(Cl)cc1Cl (stereo not drawn) | pest or weed control at 100 ppm | 80 |

* * *

- Test system: WATER PLAINTAIN
- experimental_protocol: Test C rice paddy
- Format: in vivo, Alisma trivale
- condition: 504 h; 0500 G/HA, 21 days; read-out: plant response
Overview of recorded pest or weed control at 500 g/ha for various compounds

| compound | pest or weed control at 500 g/ha (%) |
| --- | --- |
| C=C(c1ccc(Cl)cc1)C(O)(Cn1cncn1)c1ccccc1F (centres unmarked) [Example 669] | 0 |
| C=C(c1cccc(F)c1)C(O)(Cn1cncn1)c1ccc(F)cc1F (centres unmarked) [Example 18] | 20 |
| C=C(c1ccccc1Cl)C(O)(Cn1cncn1)c1ccc(F)cc1F (centres unmarked) [Example 35] | 40 |
| C=C(c1ccc(F)cc1)C(O)(Cn1ncnc1S)c1ccc(F)cc1F (centres unmarked) [Example 1304] | 0 |
| C=C(c1ccccc1)C(O)(Cn1cncn1)c1ccc(Cl)cc1Cl (centres unmarked) [Example 50] | 0 |

* * *

- System: SCIRPUS
- experimental_protocol: Test C rice paddy
- Format: in vivo, Scirpus paludosus
- condition: Bolboschoenus maritimus, 504 h; 1000 G/HA, 21 days; read-out: plant response
The following compounds are shown together with reported pest or weed control at 1000 g/ha values.
measurement_kind: pest or weed control at 1000 g/ha (%)

| compound | measurement_kind | measure_unit | value_reported |
| --- | --- | --- | --- |
| C=C(c1ccc(Cl)cc1Cl)C(O)(Cn1cncn1)c1ccccc1F (centres unmarked) | pest or weed control at 1000 g/ha | % | 80 |
| C=C(c1ccccc1)C(O)(Cn1cncn1)c1ccc(Cl)cc1Cl (centres unmarked) | pest or weed control at 1000 g/ha | % | 0 |
| C=C(c1ccc(Cl)cc1)C(O)(Cn1cncn1)c1ccccc1F (centres unmarked) | pest or weed control at 1000 g/ha | % | 30 |
| C=C(c1cccc(F)c1)C(O)(Cn1cncn1)c1ccc(F)cc1F (centres unmarked) | pest or weed control at 1000 g/ha | % | 0 |
| C=C(c1ccccc1Cl)C(O)(Cn1cncn1)c1ccc(Cl)cc1Cl (centres unmarked) | pest or weed control at 1000 g/ha | % | 0 |
| C=C(c1ccc(F)cc1)C(O)(Cn1ncnc1S)c1ccc(F)cc1F (centres unmarked) | pest or weed control at 1000 g/ha | % | 80 |
| C=C(c1ccc(F)cc1)C(O)(Cn1ncnc1I)c1ccc(F)cc1F (centres unmarked) | pest or weed control at 1000 g/ha | % | 30 |
| C=C(c1ccccc1Cl)C(O)(Cn1cncn1)c1ccc(F)cc1F (centres unmarked) | pest or weed control at 1000 g/ha | % | 50 |

* * *

- System: Rhizoctonia solani
- experimental_protocol: Example F rice sheath blight
- Type: in vivo
- condition: Rhizoctonia solani, 144 h, 100 PPM; read-out: disease control rating, Ex. F
In this section we review reported pest or weed control at 100 ppm values for a set of compounds.

| compound | study_system | pest or weed control at 100 ppm |
| --- | --- | --- |
| C=C(c1ccc(F)cc1)C(O)(Cn1cncn1)C(C)C (stereo not drawn) [Example 667] | Rhizoctonia solani | 0% |
| C=C(c1ccccc1Cl)C(O)(Cn1cncn1)c1ccc(Cl)cc1 (stereo not drawn) [Example 34] | Rhizoctonia solani | 16% |
| C=C(c1ccccc1Cl)C(O)(Cn1cncn1)c1ccc(Cl)c(Cl)c1 (stereo not drawn) [Example 627] | Rhizoctonia solani | 14% |
| C=C(CO)C(O)(Cn1cncn1)c1ccc(-c2ccccc2)cc1 (stereo not drawn) [Example 452] | Rhizoctonia solani | 67% |
| C=C(c1ccc(F)cc1)C(O)(CCCC)Cn1cncn1 (stereo not drawn) [Example 6] | Rhizoctonia solani | 0% |
| C=C(c1cccc(Cl)c1)C(O)(Cn1cncn1)c1ccc(Cl)c(Cl)c1 (stereo not drawn) [Example 905] | Rhizoctonia solani | 37% |
| C=C(c1ccccc1)C(O)(Cn1cncn1)c1ccc(Cl)cc1 (stereo not drawn) [Example 51] | Rhizoctonia solani | 100% |
| C=C(c1ccc([S+](C)[O-])cc1)C(O)(Cn1cncn1)c1ccc(F)cc1 (stereo not drawn) [Example 170] | Rhizoctonia solani | 0% |
| C=C(c1ccc(F)cc1)C(O)(Cn1ncnc1S)c1ccc(F)cc1F (stereo not drawn) [Example 1304] | Rhizoctonia solani | 88% |
| C=C(c1ccccc1C(F)(F)F)C(O)(Cn1cncn1)c1ccc(F)cc1 (stereo not drawn) [Example 724] | Rhizoctonia solani | 100% |
| C=C(c1cccc(Cl)c1)C(O)(Cn1cncn1)c1ccccc1F (stereo not drawn) [Example 47] | Rhizoctonia solani | 47% |
| C=C(c1cccc(F)c1)C(O)(Cn1cncn1)c1ccc(Cl)cc1 (stereo not drawn) [Example 17] | Rhizoctonia solani | 81% |
| C=C(c1ccc(F)cc1)C(O)(Cn1cncn1)c1ccc(Cl)c(Cl)c1 (stereo not drawn) [Example 651] | Rhizoctonia solani | 62% |
| C=C(CO)C(O)(Cn1cncn1)c1ccc(Cl)cc1Cl (stereo not drawn) [Example 449] | Rhizoctonia solani | 13% |
| C=C(c1ccccc1)C(O)(Cn1cncn1)c1ccccc1 (stereo not drawn) [Example 608] | Rhizoctonia solani | 81% |
| C=C(c1ccccc1)C(O)(Cn1cncn1)c1ccc(F)cc1 (stereo not drawn) [Example 49] | Rhizoctonia solani | 96% |
| C=C(c1ccc(Cl)cc1)C(O)(Cn1cncn1)c1ccc(F)cc1F (stereo not drawn) [Example 28] | Rhizoctonia solani | 100% |
| C=C(c1cccc(F)c1)C(O)(Cn1cncn1)c1ccc(F)cc1 (stereo not drawn) [Example 15] | Rhizoctonia solani | 93% |
| C=C(c1ccc(F)cc1)C(O)(Cn1ncnc1I)c1ccccc1F (stereo not drawn) [Example 1377] | Rhizoctonia solani | 100% |
| C=C(c1ccccc1Cl)C(O)(Cn1cncn1)c1ccc(Cl)cc1Cl (stereo not drawn) [Example 33] | Rhizoctonia solani | 60% |
| C=C(c1ccccc1Cl)C(O)(Cn1cncn1)c1ccccc1Cl (stereo not drawn) [Example 622] | Rhizoctonia solani | 100% |
| C=C(c1ccc(F)cc1)C(O)(Cn1cncn1)c1ccccc1F (stereo not drawn) [Example 644] | Rhizoctonia solani | 100% |
| C=C(c1ccc(F)cc1)C(O)(CC)Cn1cncn1 (stereo not drawn) [Example 668] | Rhizoctonia solani | 0% |
| C=C(c1ccc(C(F)(F)F)cc1)C(O)(Cn1cncn1)c1ccc(F)cc1 (stereo not drawn) [Example 65] | Rhizoctonia solani | 62% |
| OC(Cn1cncn1)(c1ccc(F)cc1)C1(c2ccccc2)CO1 (stereo not drawn) [Example 1527] | Rhizoctonia solani | 35% |
| C=C(c1ccccc1Cl)C(O)(Cn1cncn1)c1ccc(F)cc1 (stereo not drawn) [Example 32] | Rhizoctonia solani | 33% |
| C=C(c1ccc(Cl)cc1)C(O)(Cn1cncn1)c1cccc(C(F)(F)F)c1 (stereo not drawn) [Example 685] | Rhizoctonia solani | 29% |
| C=C(c1ccc(F)cc1)C(O)(Cn1cncn1)c1ccc(-c2ccccc2)cc1 (stereo not drawn) [Example 657] | Rhizoctonia solani | 97% |
| C=C(c1cccc(Cl)c1)C(O)(Cn1cncn1)c1ccc(F)cc1F (stereo not drawn) [Example 42] | Rhizoctonia solani | 41% |
| C=C(c1ccc(Cl)cc1)C(O)(Cn1cncn1)c1ccc(Cl)cc1 (stereo not drawn) [Example 27] | Rhizoctonia solani | 100% |
| C=C(c1ccc(C)cc1)C(O)(Cn1cncn1)c1ccc(F)cc1 (stereo not drawn) [Example 721] | Rhizoctonia solani | 100% |
| C=C(c1ccc(F)cc1)C(O)(Cn1cncn1)c1cccc(C(F)(F)F)c1 (stereo not drawn) [Example 661] | Rhizoctonia solani | 70% |
| C=C(c1ccc(SC)cc1)C(O)(Cn1cncn1)c1ccc(F)cc1 (stereo not drawn) [Example 163] | Rhizoctonia solani | 0% |
